# assay.system: HLA-A*11:01
# assay.summary: IEDB peptide-MHC binding, purified MHC/competitive/radioactivity; filed as Kd, often an IC50 or EC50 that approximates it; bounds were set here for any values at or beyond the usual limits of such assays
# details: source organism: Vaccinia virus WR
Could you please report measured Kd for the items listed next?
A number alone suffices; assume µM.

So what does the record say about Kd for `VAEHRFENMK` ?
0.788

Field entry: `DVSLSAYIIR`
0.609

Field entry: `IVTMMKYCSY`
0.0268

Field entry: `DIFMRDWNSK`
4.23

Field entry: `DFLKDDTLSK`
5.76

Field entry: `PVSDLYTSMR`
0.638

----------
# assay.system: HLA-B*08:01
# assay.summary: IEDB peptide-MHC binding, purified MHC/competitive/fluorescence; bounds were set here for any values at or beyond the usual limits of such assays
# details: source organism: Zaire ebolavirus
Could you please report measured IC50 for the items listed next?

So what does the record say about IC50 for `SLFLPKLVV` ?
≥ 293 µM

Field entry: `FEVKKRDGV`
≥ 158 µM

Field entry: `YRHILRSQG`
≥ 171 µM

----------
# assay.system: HLA-A*03:01
# assay.summary: IEDB peptide-MHC binding, purified MHC/competitive/radioactivity; filed as Kd, often an IC50 or EC50 that approximates it; bounds were set here for any values at or beyond the usual limits of such assays
# details: source organism: Vaccinia virus WR
pKd: −log10 of the molar value.
reported.metric: pKd

So what does the record say about pKd for `DIFMRDWNSK` ?
≤ 4.15

Field entry: `FIQWTGGNIR`
≤ 4.53

Field entry: `DFRDYQSYR`
≤ 4.11

Field entry: `VVKDDPDHY`
≤ 4.11

Field entry: `ISAEKTPIR`
≤ 4.11

Field entry: `PAGRPNYVK`
≤ 4.50

Field entry: `KFAEESYTY`
≤ 4.11

----------
# assay.system: HLA-A*68:01
# assay.summary: IEDB peptide-MHC binding, purified MHC/competitive/radioactivity; filed as Kd, often an IC50 or EC50 that approximates it; bounds were set here for any values at or beyond the usual limits of such assays
# details: source organism: SARS coronavirus Tor2
reported.metric: Kd (nM)
A number alone suffices; assume nM.

So what does the record say about Kd for `TQLYLGGMSY` ?
1350

Field entry: `DQAMTQMYK`
121

Field entry: `FFASFYYIWK`
86.2

----------
# assay.system: HLA-A*68:01
# assay.summary: IEDB peptide-MHC binding, purified MHC/competitive/radioactivity; filed as Kd, often an IC50 or EC50 that approximates it; bounds were set here for any values at or beyond the usual limits of such assays
# details: source organism: Vaccinia virus WR
reported.metric: Kd (nM)
A number alone suffices; assume nM.

So what does the record say about Kd for `TMPNESRVK` ?
2040

Field entry: `KLILAEYIR`
2090

Field entry: `GVRVRVAVNK`
2190

Field entry: `KSIENKHQR`
100

----------
Could you please report measured Kd for the items listed next?
# assay.system: HLA-B*35:01
# assay.summary: IEDB peptide-MHC binding, purified MHC/competitive/radioactivity; filed as Kd, often an IC50 or EC50 that approximates it; bounds were set here for any values at or beyond the usual limits of such assays
# details: source organism: Vaccinia virus WR

So what does the record say about Kd for `TPTIEDDKIV` ?
≥ 52.2 µM

Field entry: `MPSACANGWI`
≥ 69.9 µM

Field entry: `HVDGKILFV`
≥ 77.4 µM

----------
# assay.system: HLA-B*35:01
# assay.summary: IEDB peptide-MHC binding, purified MHC/competitive/radioactivity; filed as Kd, often an IC50 or EC50 that approximates it; bounds were set here for any values at or beyond the usual limits of such assays
# details: source organism: SARS coronavirus Tor2
pKd: −log10 of the molar value.
reported.metric: pKd

So what does the record say about pKd for `FPLNSKVKVI` ?
≤ 4.53

Field entry: `KPLLAPHHVV`
≤ 4.16

Field entry: `FPPTSFGPLV`
≤ 4.61

----------
# assay.system: HLA-A*33:01
# assay.summary: IEDB peptide-MHC binding, purified MHC/competitive/radioactivity; filed as Kd, often an IC50 or EC50 that approximates it; bounds were set here for any values at or beyond the usual limits of such assays
# details: source organism: SARS coronavirus Tor2
reported.metric: Kd

So what does the record say about Kd for `FQGKFKKIVK` ?
≥ 24.7 µM

Field entry: `TQLYLGGMSY`
≥ 40 µM

Field entry: `ILCFTIKRK`
≥ 45 µM

Field entry: `ATVAYFNMVY`
≥ 70 µM

Field entry: `QIGEYTFEK`
≥ 22.2 µM

----------
# assay.system: HLA-A*68:01
# assay.summary: IEDB peptide-MHC binding, purified MHC/competitive/radioactivity; filed as Kd, often an IC50 or EC50 that approximates it; bounds were set here for any values at or beyond the usual limits of such assays
# details: source organism: Vaccinia virus WR
reported.metric: pKd
FYI, pKd means -log10 of a concentration in mol per litre.

So what does the record say about pKd for `DLLFNEKLK` ?
7.53

Field entry: `SSRVDRYSK`
6.21

Field entry: `VLKAMHDKK`
5.47

Field entry: `LVYIFEPEK`
6.89

Field entry: `FSSLRREHIK`
7.03

Field entry: `ISAEKTPIR`
6.56

Field entry: `IVTMMKYCSY`
7.38

Field entry: `VIEYAKSISK`
5.57

Field entry: `HVCNATDFWR`
7.42

Field entry: `DSDVSLIIEY`
6.69

Field entry: `VAEHRFENMK`
5.24

Field entry: `EIARIENEMK`
8.15

----------
# assay.system: HLA-A*31:01
# assay.summary: IEDB peptide-MHC binding, purified MHC/competitive/radioactivity; filed as Kd, often an IC50 or EC50 that approximates it; bounds were set here for any values at or beyond the usual limits of such assays
# details: source organism: SARS coronavirus Tor2
Cut-off 0.3 µM on Kd: below means y, at or above means n.

Does `FQGKFKKIVK` have Kd strictly under 0.3 µM?
n

Field entry: `LTSMKYFVK`
y

Field entry: `QIGEYTFEK`
n

Field entry: `AMPNLYKMQR`
y

Field entry: `VVYRGTTTYK`
y

Field entry: `ATVAYFNMVY`
n

Field entry: `GFNTLKPIFK`
n

Field entry: `CMTSCCSCLK`
n

----------
# assay.system: HLA-A*24:02
# assay.summary: IEDB peptide-MHC binding, purified MHC/competitive/fluorescence; bounds were set here for any values at or beyond the usual limits of such assays
# details: source organism: Zaire ebolavirus
Could you please report measured pIC50 for the items listed next?
FYI, pIC50 means -log10 of a concentration in mol per litre.

So what does the record say about pIC50 for `VKYLEGHGF` ?
4.84

Field entry: `TVIYRGTTF`
5.90

Field entry: `SLFLPKLVV`
4.34

Field entry: `IRYQATGFG`
4.26

Field entry: `VYRDHSEKK`
4.54

----------
# assay.system: HLA-B*07:02
# assay.summary: IEDB peptide-MHC binding, purified MHC/competitive/radioactivity; filed as Kd, often an IC50 or EC50 that approximates it; bounds were set here for any values at or beyond the usual limits of such assays
# details: source organism: Vaccinia virus WR
pKd: −log10 of the molar value.
Could you please report measured pKd for the items listed next?

So what does the record say about pKd for `HVDGKILFV` ?
≤ 4.11

Field entry: `DPVYISQFSY`
≤ 4.16

Field entry: `MPSACANGWI`
≤ 4.50

----------
# assay.system: HLA-A*01:01
# assay.summary: IEDB peptide-MHC binding, purified MHC/competitive/radioactivity; filed as Kd, often an IC50 or EC50 that approximates it; bounds were set here for any values at or beyond the usual limits of such assays
# details: source organism: SARS coronavirus Tor2
reported.metric: log10(Kd) (log10 of the value in nM)
Log scale reminder: Kd in nM, then log10 taken.

So what does the record say about log10(Kd) for `DSSQGSEYDY` ?
2.18

Field entry: `AYMLFTKFFY`
2.53

Field entry: `TCDWTNAGDY`
2.12

Field entry: `LYLYALIYFL`
3.63

Field entry: `GAEHVDTSY`
2.60

----------
# assay.system: HLA-A*01:01
# assay.summary: IEDB peptide-MHC binding, purified MHC/competitive/radioactivity; filed as Kd, often an IC50 or EC50 that approximates it; bounds were set here for any values at or beyond the usual limits of such assays
# details: source organism: SARS coronavirus Tor2
pKd: −log10 of the molar value.
reported.metric: pKd

So what does the record say about pKd for `AYATAQEAY` ?
≤ 4.01

Field entry: `LYYPSARIVY`
≤ 4.42

Field entry: `NYMPYVFTL`
≤ 4.11

The reported measurements were obtained from the Immune Epitope Database (IEDB).
